Hey, just so you know, these numbers are from PubChem BioAssay (NCI).

- Tested on: K-562 leukemia
- ASSAY COMMENT: NCI-60 one-dose screen, 48 h
- CONDITION LABEL: 10 µM unless noted
This is part of a sample that, as a whole, favours compounds with a hit. Of some 83,000 tested, about 20% had one in any assay. Calls of active or inactive are those of the source. How the source made its calls: active means growth percent below 10; inactive means the rest.
Labels: Y (active), N (inactive)

>  <COMPOUND>
CN1CCN(Cc2ccc(NC(=O)c3[nH]ncc3Nc3ccnc4ccsc34)cc2)CC1

>  <CATEGORY LABEL>
N

$$$$
>  <COMPOUND>
N#Cc1c2c(nc3n[nH]c(N)c13)CCCC2

>  <CATEGORY LABEL>
N

$$$$
>  <COMPOUND>
CCN(CC)CCCC(C)Nc1ccnc2c(OC)cccc12 (configuration not stated)

>  <CATEGORY LABEL>
N

$$$$
>  <COMPOUND>
COc1ccc(-c2c(C)noc2-c2ccc(O)cc2O)cc1

>  <CATEGORY LABEL>
N

$$$$
>  <COMPOUND>
CCN(CC)c1ccc(CNc2cc(C)nc3ccc(OC)cc23)cc1

>  <CATEGORY LABEL>
Y

$$$$
>  <COMPOUND>
O=C1CCc2c(sc3[nH]c(=S)n(Cc4ccccc4)c(=O)c23)C1

>  <CATEGORY LABEL>
N

$$$$
>  <COMPOUND>
CCCC(=O)Oc1ccc(/C(=C(/CC)Cc2ccccc2)c2ccc(OCCN3CCCC3)cc2)cc1

>  <CATEGORY LABEL>
Y

$$$$
>  <COMPOUND>
Cc1ccc(SCN2CCN(c3cccc(Cl)c3)CC2)cc1

>  <CATEGORY LABEL>
N

$$$$
>  <COMPOUND>
CC1CN(Cc2ccco2)C(=S)N(c2ccccc2)C1=O (configuration not stated)

>  <CATEGORY LABEL>
N

$$$$
>  <COMPOUND>
O=c1ccc2cc3ccccc3cc2[nH]1

>  <CATEGORY LABEL>
N

$$$$
>  <COMPOUND>
Nc1ccc2c(c1)C(=O)NC2=O

>  <CATEGORY LABEL>
N

$$$$
>  <COMPOUND>
O=C(Nc1ccc(CN2CCOCC2)cc1)c1[nH]ncc1Nc1ncnc2sccc12

>  <CATEGORY LABEL>
Y

$$$$
>  <COMPOUND>
O=C1Nc2ccc(Br)cc2C12CC(c1ccccc1)=NN2 (configuration not stated)

>  <CATEGORY LABEL>
N

$$$$
>  <COMPOUND>
c1ccc2sc(SCCCn3ccnc3)nc2c1

>  <CATEGORY LABEL>
N

$$$$
>  <COMPOUND>
COc1cnc2c(c1)C(=O)c1c-2n(CCCN2CCCC2)c(=O)c2cc([N+](=O)[O-])ccc12

>  <CATEGORY LABEL>
Y

$$$$
>  <COMPOUND>
CC(=O)C1=C(O)C=C2Oc3c(C(=O)/C=C/c4cc(Cl)cc(Cl)c4)c(O)c(C)c(O)c3[C@]2(C)C1=O

>  <CATEGORY LABEL>
Y

$$$$
>  <COMPOUND>
Cc1ccc(-c2nc(/C=N/Nc3cc(C)nc4ccc(Br)cc34)c(C)o2)cc1

>  <CATEGORY LABEL>
Y

$$$$
>  <COMPOUND>
CCc1ccccc1NC(=O)c1sc2nc3c(cc2c1N)C(=O)CCC3

>  <CATEGORY LABEL>
N

$$$$
>  <COMPOUND>
COc1c(Cl)cc(Cl)cc1Cl

>  <CATEGORY LABEL>
N

$$$$
>  <COMPOUND>
CCOC(=O)C12CCCC1=CC(=O)CC2 (configuration not stated)

>  <CATEGORY LABEL>
N

$$$$
>  <COMPOUND>
O=C(CN1CCN(c2cc3c(cc2F)c(=O)c(C(=O)O)cn3C2CC2)CC1)Nc1cc(=O)[nH]c(=O)[nH]1

>  <CATEGORY LABEL>
N

$$$$
>  <COMPOUND>
COc1ccc(-n2cc(-c3ccccc3)c3c(SCC(=O)N/N=C/c4ccc([N+](=O)[O-])cc4)ncnc32)cc1

>  <CATEGORY LABEL>
N

$$$$
>  <COMPOUND>
COc1ccc(C(=O)/C=C/c2c(Cl)c3c(c(OC)c2Cl)OCC(=O)N3)cc1

>  <CATEGORY LABEL>
Y

$$$$
>  <COMPOUND>
Cc1cc(Nc2nc(-c3cccnc3)nc3ccccc23)n[nH]1

>  <CATEGORY LABEL>
N

$$$$
>  <COMPOUND>
COc1ccc(/C(=C/c2ccc3ccccc3c2)c2nn[nH]n2)cc1OC

>  <CATEGORY LABEL>
N

$$$$
>  <COMPOUND>
COc1cc(/C=N/N(C)C)ccc1O

>  <CATEGORY LABEL>
N

$$$$
>  <COMPOUND>
NS(=O)(=O)c1ccc(-n2ncc3c(=O)[nH]c(CN4CCN(c5cc6c(cc5F)c(=O)c(C(=O)O)cn6C5CC5)CC4)nc32)cc1

>  <CATEGORY LABEL>
N

$$$$
>  <COMPOUND>
CCOC(=O)c1cnc2ccc(Br)cc2c1Nc1cccc(S(=O)(=O)NC)c1

>  <CATEGORY LABEL>
N

$$$$
>  <COMPOUND>
NS(=O)(=O)c1ccc(Nc2nc3n[nH]c(Nc4ccccc4)c3c(=O)[nH]2)cc1

>  <CATEGORY LABEL>
N

$$$$
>  <COMPOUND>
O=C1c2cc3c(cc2-c2c1c1cc(F)c(F)cc1c(=O)n2C[C@H](O)CO)OCO3

>  <CATEGORY LABEL>
Y

$$$$
>  <COMPOUND>
CC(C)(C)n1cc(-c2ccnc(NCCCNS(=O)(=O)c3cccc4ccccc34)c2)c(-c2cccc(O)c2)n1

>  <CATEGORY LABEL>
Y

$$$$
>  <COMPOUND>
N#CC1=C(N)Oc2c(ccc3ccccc23)C1c1cccs1 (configuration not stated)

>  <CATEGORY LABEL>
Y

$$$$
>  <COMPOUND>
COc1cnc2c(c1)C(=O)c1c-2n(CCCBr)c(=O)c2cc([N+](=O)[O-])ccc12

>  <CATEGORY LABEL>
N

$$$$
>  <COMPOUND>
COc1ccc(C2c3ccc4ccccc4c3Oc3ncnc(N)c32)cc1 (configuration not stated)

>  <CATEGORY LABEL>
N

$$$$
>  <COMPOUND>
OCC1C2C=CC(C2)C1CO (configuration not stated)

>  <CATEGORY LABEL>
N

$$$$
>  <COMPOUND>
CCCCNc1ccc2c3c1cccc3c(=O)n1c3ccccc3nc21

>  <CATEGORY LABEL>
N

$$$$
>  <COMPOUND>
O=C1C=CC(=O)N1c1ccc(Cc2ccc(N3C(=O)C=CC3=O)cc2)cc1

>  <CATEGORY LABEL>
N

$$$$
>  <COMPOUND>
O=C1C=CC(Nc2ccccc2[N+](=O)[O-])C1Nc1ccccc1[N+](=O)[O-] (configuration not stated)

>  <CATEGORY LABEL>
Y

$$$$
>  <COMPOUND>
c1ccc(-c2nc(N3CCOCC3)c3c4c(sc3n2)CCCCC4)nc1

>  <CATEGORY LABEL>
N

$$$$
>  <COMPOUND>
CC[C@]12C=CCN3CC[C@@]4(c5ccc(OC)cc5N(C)[C@H]4[C@@](O)(C(=O)OC)[C@@H]1OC(=O)CCC(=O)N[C@@H](Cc1c[nH]c4ccccc14)C(=O)OC)[C@@H]32

>  <CATEGORY LABEL>
N

$$$$
>  <COMPOUND>
CC/C=C\C[C@H](O)C/C=C1/C(=O)C=C[C@@H]1C/C=C\CCCC(=O)OC(C)C

>  <CATEGORY LABEL>
Y

$$$$
>  <COMPOUND>
CCOC(=O)N1CCN(c2nc(Nc3cc(C)[nH]n3)c3ccccc3n2)CC1

>  <CATEGORY LABEL>
N

$$$$

###

- Tested on: SK-MEL-28 melanoma
- ASSAY COMMENT: NCI-60 one-dose screen, 48 h (100 = growth as untreated, 0 = no growth, -100 = all killed)
- CONDITION LABEL: 10 µM unless noted
Compounds without any hit were thinned out: in the full panel of roughly 83,000, 20% have a hit.
Listed below: growth values for each entry.
MEASURED PROPERTY: growth (%)

>  <MOLECULE>
O=C(Nc1cccc2[nH]c(C(F)(F)F)nc12)c1ccc(Br)cc1F

>  <TEST SYSTEM>
SK-MEL-28 melanoma

>  <ASSAY RESULT>
62.9

$$$$
>  <MOLECULE>
CC/C=C\C[C@H](O)C/C=C1/C(=O)C=C[C@@H]1C/C=C\CCCC(=O)OC(C)C

>  <TEST SYSTEM>
SK-MEL-28 melanoma

>  <ASSAY RESULT>
-41.3

$$$$
>  <MOLECULE>
O=C(/C=C\c1cccc([N+](=O)[O-])c1)c1ccccc1

>  <TEST SYSTEM>
SK-MEL-28 melanoma

>  <ASSAY RESULT>
5.24

$$$$
>  <MOLECULE>
CCCCOc1ccc(NC(=O)n2nc(NC(C)=O)c3cc(NC(C)=O)ccc32)cc1

>  <TEST SYSTEM>
SK-MEL-28 melanoma

>  <ASSAY RESULT>
126

$$$$
>  <MOLECULE>
O=C(/C=C/c1ccc(Cl)cc1)c1ccc(O)c(CN2CCN(c3cc4c(cc3F)c(=O)c(C(=O)O)cn4C3CC3)CC2)c1

>  <TEST SYSTEM>
SK-MEL-28 melanoma

>  <ASSAY RESULT>
62.1

$$$$
>  <MOLECULE>
C[C@H](CCC(=O)O)[C@H]1CC[C@H]2[C@@H]3CC[C@@H]4/C(=C\c5ccco5)C(=O)/C(=C\c5ccco5)C[C@]4(C)[C@H]3CC[C@]12C

>  <TEST SYSTEM>
SK-MEL-28 melanoma

>  <ASSAY RESULT>
44.3

$$$$
>  <MOLECULE>
Cn1c(=O)c2c(ncn2CC[N+](C)(C)C)n(C)c1=O

>  <TEST SYSTEM>
SK-MEL-28 melanoma

>  <ASSAY RESULT>
106

$$$$
>  <MOLECULE>
CCN(CC)Cc1cc(Nc2c3ccc(Cl)cc3nc3c(C)cccc23)ccc1O

>  <TEST SYSTEM>
SK-MEL-28 melanoma

>  <ASSAY RESULT>
-65.5

$$$$
>  <MOLECULE>
CCOC(=O)c1cnc2ccc(OC)cc2c1Nc1cccc(S(=O)(=O)NC)c1

>  <TEST SYSTEM>
SK-MEL-28 melanoma

>  <ASSAY RESULT>
85.9

$$$$
>  <MOLECULE>
C=C1C(=O)O[C@H]2[C@H]1CC/C(Cn1cc(Cn3ccc4cc(Cl)ccc43)nn1)=C\CC[C@@]1(C)O[C@@H]21

>  <TEST SYSTEM>
SK-MEL-28 melanoma

>  <ASSAY RESULT>
-13.3

$$$$
>  <MOLECULE>
COc1cc(-c2c3sc(=O)[nH]c3nc3c2c(=O)[nH]n3C(C)C)cc2c1OCO2

>  <TEST SYSTEM>
SK-MEL-28 melanoma

>  <ASSAY RESULT>
99.2

$$$$
>  <MOLECULE>
CCCCCCCCCCCCNC(=O)[C@H]1CSC(c2ccc(OC)c(F)c2)N1 (stereo not given in full)

>  <TEST SYSTEM>
SK-MEL-28 melanoma

>  <ASSAY RESULT>
-92.6

$$$$
>  <MOLECULE>
CCCCCCCCCCCCN1CCCC(C)C1 (stereo not given)

>  <TEST SYSTEM>
SK-MEL-28 melanoma

>  <ASSAY RESULT>
90

$$$$
>  <MOLECULE>
O=[N+]([O-])c1cccc(-c2nc3sccn3c2-c2ccnc(NCCCNS(=O)(=O)c3ccc(F)cc3)n2)c1

>  <TEST SYSTEM>
SK-MEL-28 melanoma

>  <ASSAY RESULT>
-1.76

$$$$
>  <MOLECULE>
CC1CN(Cc2ccco2)C(=S)N(c2ccccc2)C1=O (stereo not given)

>  <TEST SYSTEM>
SK-MEL-28 melanoma

>  <ASSAY RESULT>
102

$$$$
>  <MOLECULE>
COc1cccc(/C=C2/C(=O)N(Cc3ccco3)SC2=S)c1OC

>  <TEST SYSTEM>
SK-MEL-28 melanoma

>  <ASSAY RESULT>
101

$$$$
>  <MOLECULE>
CC[C@H](Nc1ncnc(N)c1C(N)=O)c1nc2cccc(NCc3ccc(C(=O)NO)cc3)c2c(=O)n1-c1ccccc1

>  <TEST SYSTEM>
SK-MEL-28 melanoma

>  <ASSAY RESULT>
69.2

$$$$
>  <MOLECULE>
Cc1csc2ccc(Cl)cc12

>  <TEST SYSTEM>
SK-MEL-28 melanoma

>  <ASSAY RESULT>
104

$$$$
>  <MOLECULE>
Oc1c(Cl)cc(Cl)cc1CNc1nccnn1

>  <TEST SYSTEM>
SK-MEL-28 melanoma

>  <ASSAY RESULT>
106

$$$$
>  <MOLECULE>
COc1ccc(C/C(C)=C(\c2ccc(OCCN3CCCCCC3)cc2)c2ccc(OC(=O)C3CCCCC3)cc2)cc1

>  <TEST SYSTEM>
SK-MEL-28 melanoma

>  <ASSAY RESULT>
66.9

$$$$
